The values you see were collected from the nanobody polyreactivity screen of Harvey et al. (2022).

- METHOD DESCRIPTION: yeast display, Sf9 membrane polyspecificity reagent, FACS + sequencing; frameworks hold sequencing errors
READOUT KIND: polyreactivity (PSR sort gate)

Record excerpt, results attached:
QVQLEESGGSLVQAGGSLRLSCAASGRTFYHYAMGWYRPAPGKERQLVAAISSGGSTKYADSVKGRFTISRDNAKNTVYLQMNSLKPEDTAVYYCAARTYQKGGRYYYWGQGTHVTVSS = high polyreactivity
QDQLVESGGGLVQAGGSLSLSCAASGRNFFHNAMGWYRQAPGKERELVASITSGDGTYYADSVKGRFTISRDNAKNTVYLQMNSMKPEDTEVYSCAAEPGSIAYYYTRVGLYYWGQGTQVTVSS = low polyreactivity
QVQLVESGGGLVQAGGSLRLSCAASGSISGYNAMGWYRQAPGKERELVAAISWAGGITRYADSVKGRFTISRDNAKNPVYLQMNSLKPEDTAVYYCAADQTYERHWVYYWGQGTQVTVSS = low polyreactivity
QVQLVESGGGLVQVGGSLRLSCAASGRTFGRYAMGWYRQAPGKERELVAAINSVARTNYADSVKGRFTISRDNAKNTVYLHMNSLKPEDTAVYYCAARYYYSGVTHAKRIAYYYWGQGTQVTVSS = high polyreactivity

Turning now to a further record.
# lookup: polyreactivity (PSR sort gate) of `QVQLVESGGGLVQAGGSLRLSCAASGRTDFNTMGWYRQAPGKERELVAAITSTGRTYYADSVKGRFTISRDNAKNTVYLQMNSLKPEDTAVYFCAAVWRYKGLLLPSYYYWGQGTQVTVSS`
high polyreactivity

###

- METHOD DESCRIPTION: yeast display, Sf9 membrane polyspecificity reagent, FACS + sequencing; frameworks hold sequencing errors
READOUT KIND: polyreactivity (PSR sort gate)

Record excerpt, results attached:
QVQLVESGAGLVKAGCSLRISCAASGSSFVTYDMGWYRQAPGKERELVAGISGSGSTNYADSVKGRFTISRDNAKNTVYLQMNSLKPEDTAVYYSAAEYEYLWSQYLTDYGYDYWGQGTQVTVSS = low polyreactivity
QVQLVESGGGLVQAGGSLRLSCAASGRTFRRYAMGWYRQAPGKERELVAAITNRGASTYYADSVKGRFTISRDNAKNTVYLQMNSLKPEDTAVYFCNTDPVSGLVWKGTEYDYWGQGTQVTVSS = low polyreactivity
QVQLVESGGGLVQAGGSLRLSCAASGSTLRHNVMGWYRQAPGKERELVAAITFSGGSTTYADSVKGRFTISRDNAKNTVYLQMNSLKPEDTAVYYCNAVYAGAGSFHPGYGYWGQGTQVTVSS = low polyreactivity
QVQLVESGGRLVQAGGSLRLSCAASGFIFCLNAMGWYRHAQGKERELVATIDNSGGSTYADSVKGRFTISRDNAKNTVYLQMNSLKPEVTAVYYCARDDGLLSYGYWGQGTQVTVSS = low polyreactivity
QVQLVESGGGLVQAGGSLRLSCAASGSTFYHYAMGWYRQAPGKERELVAAISTGGSTYYADSVKGRFTISRDNAKNTVYLQMNSLKPEDTAVYYCNARYIGGYGYWGQGTQVTVSS = low polyreactivity
QVQLVESGGGLVQAGGSLRLSCPASGSTYLIYAMGWYRQAPGKERELVARITSTGSTYYADSVKRRFTISRDNAMNTVYLHMNSLKPEDTAVYYCNAAGYQYYWHYYWGQGTQVTVSS = low polyreactivity

# lookup: polyreactivity (PSR sort gate) of `QVQLVESGGGLVQAGGSLRLSCAASGSTFDYYTMGWYRQAPGKERELVAAITSGGSTNYADSVKGRFTISRDNAKNTVYLQMNSLKPEDTAVYYCAADEWYNNYNCTTYGPEYDSWGQGTQVTVSS`
low polyreactivity

# lookup: polyreactivity (PSR sort gate) of `QVQLVESGGGLVQAGGSLRLSCAASGFTIIRYAMGWYRQAPGKERDLVAAITTSGSGTYYAHSVKGRFTISRDNAKNTVYLQMNSLKPEDTAVDYCATDYRYRSYSRGAHDYWGQGTQVTVSS`
low polyreactivity

# lookup: polyreactivity (PSR sort gate) of `QVQLVESGGGLVQAGGSLRLSCAASGFYAMGWYIQAPGKERELVAAIRYRGGSTYYADSVKGRFTFSRDNAKNTVDLQMNSLKPEDTAVYYCAASTGPDRQFDSWGQGTQVTVSS`
low polyreactivity

# lookup: polyreactivity (PSR sort gate) of `QVQLVESGGGLVQAGGSLRLSCAASGGIFDRYAMGWYRQAPGKERELVAGITWSGGRTYYADSVKGRFTISRDNAKNTVYLQMNSLKPEDTAVYYCAASLYTWTYQPVYYRDGYWGQGTQVTVSS`
low polyreactivity

# lookup: polyreactivity (PSR sort gate) of `QVQLVESGGGLVQAGGSLRLSCAASGSTFPYVMGWYRQAPGKERELVAAISQSTGGITNYADSVKGRFTISRDNAKNTVYLQMNSLKPEDTAVYYCAATSWRYQQSTRYKGRRYYSWGQGSQVTVSS`
high polyreactivity

# lookup: polyreactivity (PSR sort gate) of `QVHLVETGGGLVHAGGSLRLSCAASGFIFGVNAMGWYRQAPGKERELDAAITRNGGSTYYADSVKGRFTISRDYAKNTVYLQMNSLKPEDTAVYYCAKYVRRAPSSIDVDYWGQGTQVTVSS`
high polyreactivity

# lookup: polyreactivity (PSR sort gate) of `QVQLVESGGGLVQAGGSLRLSCAASGGTFPGYTMGWYRQAPGKERELVAAISRGGRTYYADSVKGRFTISRDNAKNTVYLQMNSLKPEDTAVYYCNAVTKYGNFDYWGQGTQVTVSS`
high polyreactivity

# lookup: polyreactivity (PSR sort gate) of `QVQLVESGGGLVQAGGSLRLSCAASGFTIRSYVMGWYRQAPGKERELVAAIRRSGGSTYYADSVKGRFTNSRDNAKNTVYLQMNSLKPEDTAVYYCNAPHHRYDWGQGTQVTVSS`
high polyreactivity
